Molecular target: T1, CIRV p19 (Carnation Italian ringspot virus, UniProt Q66104 1-172)
T1 sequence: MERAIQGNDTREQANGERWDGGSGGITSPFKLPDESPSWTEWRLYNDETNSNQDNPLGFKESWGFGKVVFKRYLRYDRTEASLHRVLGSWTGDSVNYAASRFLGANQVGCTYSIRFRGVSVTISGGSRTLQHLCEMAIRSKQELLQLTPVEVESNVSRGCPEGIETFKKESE
Test: EMSA
Settings: protein: recombinant; tags: GST tag removed (PreScission, pGEX-6P-1); chain copies: 2; label: 5'-32P; 3' overhangs 2 nt, G/A mismatch
READOUT_TYPE: Kd (nM)
Unit nM implied. Number only.

# Kd lookup, item miR162-16gA/4*G (dsRNA, 5'-phosphate) RNA 1: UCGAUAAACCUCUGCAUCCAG RNA 2: GGAGGCAGAGGUUCAUCGAUC
0.38
